system: Plasmodium falciparum; experiment: MMV: Compounds (1uM) were screened in a 72hr growth assay monitored by flow cytometry both in the presence and absence of supplemental isopentenyl pyrophosphate (IPP) 200uM. Compounds which fail to show anti-malarial activity when chemically rescued by IPP are therefore specific to the apicoplast. The values are expressed as the ratio of the corresponding activity with and without IPP, respectively.; assay type: functional, W2
Ratio vs 0.9: less than gives T; not less than gives F.

Here's what some known entries look like.
compound	assigned_label
Cc1cccc(Nc2nc(N)c3ccccc3n2)c1.Cl	F
CC1=C(CC(=O)c2cccc([N+](=O)[O-])c2)C(=O)c2ccccc2C1=O	F
O=C(NC1CCN(Cc2ccccc2)CC1)c1cc(-c2cccnc2)nc2ccc(Cl)cc12	T

Please state whether Ratio is below 0.9 for Nc1ccn([C@@H]2O[C@H](CO)[C@@H](O)[C@H]2O)c(=O)n1 [CYTIDINE]
T

And CCC(c1ccccc1)c1nn2c(-c3cccs3)nnc2s1 (configuration not stated) ?
T

What do you have for `CCOC(=O)c1cnc2ccc(OC)cc2c1NCc1ccccc1` ?
T

Moving on to CCOc1ccccc1CNC(=O)C1c2ccccc2C(=O)N(CC(C)C)C1c1cccs1 (configuration not stated)
F

---

Quick reference for Ratio among some compounds
test system: Plasmodium falciparum; test: MMV: Compounds (1uM) were screened in a 72hr growth assay monitored by flow cytometry both in the presence and absence of supplemental isopentenyl pyrophosphate (IPP) 200uM. Compounds which fail to show anti-malarial activity when chemically rescued by IPP are therefore specific to the apicoplast. The values are expressed as the ratio of the corresponding activity with and without IPP, respectively.; type: functional, W2
Write the value as a bare number.

Known results for compounds:
chemical_structure	Ratio
CCOC(=O)c1c(NC(=O)c2ccccc2)sc2c(O)c(CN(CC)CC)ccc12	0.8592
Cc1cc(C)c2nc(N3CCC(C(=O)NCCCN4CCC(N5CCCCC5)CC4)CC3)sc2c1	0.8033
FC(F)(F)c1cccc(Nc2nc3ccccc3nc2Nc2cccc(C(F)(F)F)c2)c1	1.08
COc1ccc(-c2cc(=O)oc3c4c(ccc23)OCN(Cc2ccc(F)cc2)C4)cc1	0.9508

Could you now consider this next compound?
Requested field: Ratio. Item: `COc1ccccc1C(=O)ON=C(N)Cc1cccc2ccccc12`
1.06

---

test system: Plasmodium falciparum; assay: MMV: Compounds (1uM) were screened in a 72hr growth assay monitored by flow cytometry both in the presence and absence of supplemental isopentenyl pyrophosphate (IPP) 200uM. Compounds which fail to show anti-malarial activity when chemically rescued by IPP are therefore specific to the apicoplast. The values are expressed as the ratio of the corresponding activity with and without IPP, respectively.; type: functional, W2
Please note: YES applies when Ratio is 1 or greater, and NO applies otherwise.

Please check the record `Cc1cc(NCCN2CCCCC2)c2ccc3ccccc3c2n1` and state if its Ratio is at or above 1.
NO

Another molecule to check: `COc1ccc(C=C2SC(Nc3ccc(F)cc3)=NC2=O)c(OC)c1`
NO

What do we get for `CCCCNCC(O)(c1ccc(Cl)cc1)c1ccc(Cl)cc1` ?
YES

One more molecule: `O=C(Nc1ccc(-c2nc3cc(NC(=O)c4ccc(Cl)cc4)ccc3[nH]2)cc1)c1ccc(Cl)cc1`
NO

Quick one: CCOc1c(Cl)cc(CNCC(O)c2ccccc2)cc1OC (stereo unspecified)
NO

Try this molecule next: `CCOC(=O)C1=CN(C)C=C(C(=O)OCC)C1c1cc(Br)c(OCC)c(OC)c1`
YES

Try the molecule `O=C(Nc1ccc(-c2nc3ccccc3[nH]2)cc1)c1ccc(Cl)c(Cl)c1`
NO
